compounds and their reported MIC
- Test system: Mycobacterium avium 330/88
- TEST NAME: Antimycobacterial micromethod in Šula's medium, M. avium
- Format: cell-based
- PROTOCOL CONDITIONS: 330/88, 336 h, 14 days incubation at 37 °C, read-out: MIC M. avium 330/88 14 d
Answer format: numeric, µM implied, no suffix.

Below, each entry is followed by its recorded MIC result.
{"COMPOUND": "CC(C)(C)c1ccc(O)c(C=Nc2ccc(C(=O)O)cc2)c1 [1j]", "UNIT SYMBOL": "µM", "MIC": 1000}
{"COMPOUND": "O=C(O)c1ccc(N=Cc2cc(Cl)cc(Cl)c2O)cc1 [1n]", "UNIT SYMBOL": "µM", "MIC": 1000}
{"COMPOUND": "O=C(O)c1ccc(N=Cc2cc(O)ccc2O)cc1 [1i]", "UNIT SYMBOL": "µM", "MIC": 1000}
{"COMPOUND": "O=C(O)c1ccc(N=Cc2cccc(Cl)c2O)cc1 [1m]", "UNIT SYMBOL": "µM", "MIC": 1000}
{"COMPOUND": "O=C(O)c1ccc(N=Cc2cc(I)cc(I)c2O)cc1 [1q]", "UNIT SYMBOL": "µM", "MIC": 500}

Entry under review: O=C(O)c1ccc(N=Cc2cc(Cl)cc(I)c2O)cc1 [1p] . Reported MIC?
500

Now consider O=C(O)c1ccc(N=Cc2ccc(O)cc2)cc1 [1t] and answer again.
1000

Now consider O=C(O)c1ccc(N=Cc2cc(Cl)cc(Br)c2O)cc1 [1o] and answer again.
500

###

- Test system: Trichosporon asahii 1188
- TEST NAME: Antifungal microdilution broth method, T. asahii
- Assay type: cell-based
- PROTOCOL CONDITIONS: 24 h, read-out: MIC TA 24 h
MEASUREMENT TYPE: MIC

{"MOLECULE": "O=C(O)c1ccc(N=Cc2ccc(O)cc2)cc1 [1t]", "TESTED SYSTEM": "Trichosporon asahii 1188", "REPORTED RESULT": "> 500 µM"}
{"MOLECULE": "O=C(O)c1ccc(NCc2ccccc2O)cc1 [1u, 4-[(2-Hydroxybenzyl)amino]benzoic acid]", "TESTED SYSTEM": "Trichosporon asahii 1188", "REPORTED RESULT": "> 500 µM"}

Shift focus to the following entry.
Entry under review: O=C(O)c1ccc(N=Cc2cc(F)ccc2O)cc1 [1b] . Reported MIC?
> 500 µM

###

- Test system: Trichosporon asahii 1188
- TEST NAME: Antifungal microdilution broth method, T. asahii
- Type: cell-based
- PROTOCOL CONDITIONS: 24 h, read-out: MIC TA 24 h
- Experimental: The antifungal properties were evaluated against five yeast strains, namely: Candida albicans ATCC 44859, Candida tropicalis 156, Candida krusei […], Candida glabrata 20/I, Trichosporon […] 1188 and three strains of filamentous fungi: Aspergillus fumigatus 231, Lichtheimia corymbifera 272, and Trichophyton interdigitale 445. […] For the results to be valid, the difference in MIC determined from two parallel measurements must not be greater than one step on the dilution scale. […]
MEASUREMENT TYPE: MIC

Below, each entry is followed by its recorded MIC result.
{"SMILES STRUCTURE": "Cc1ccc(O)c(C=Nc2ccc(C(=O)O)cc2)c1", "TESTED SYSTEM": "Trichosporon asahii 1188", "REPORTED RESULT": "> 125 µM"}
{"SMILES STRUCTURE": "COc1ccccc1C=Nc1ccc(C(=O)O)cc1", "TESTED SYSTEM": "Trichosporon asahii 1188", "REPORTED RESULT": "> 500 µM"}

Shift focus to the following entry.
Entry under review: Nc1ccc(C(=O)O)cc1 . Reported MIC?
> 500 µM

###

- Tested on: Klebsiella pneumoniae D 11750/08
- TEST NAME: Antibacterial microdilution broth method, K. pneumoniae
- PROTOCOL CONDITIONS: K. pneumoniae D 11750/08; 48 h incubation
MEASUREMENT TYPE: MIC KP 48 h (µM)
Answer format: numeric, µM implied, no suffix.

Below, each entry is followed by its recorded MIC KP 48 h result.
{"SMILES STRUCTURE": "O=C(O)c1ccc(N=Cc2ccc([N+](=O)[O-])o2)cc1", "TESTED SYSTEM": "Klebsiella pneumoniae D 11750/08", "MEASUREMENT TYPE": "MIC KP 48 h", "UNIT SYMBOL": "µM", "REPORTED RESULT": 500}
{"SMILES STRUCTURE": "O=C(O)c1ccc(N=Cc2cc(I)cc(I)c2O)cc1", "TESTED SYSTEM": "Klebsiella pneumoniae D 11750/08", "MEASUREMENT TYPE": "MIC KP 48 h", "UNIT SYMBOL": "µM", "REPORTED RESULT": 500}

Shift focus to the following entry.
Entry under review: O=C(O)c1ccc(N=Cc2cc(Cl)cc(I)c2O)cc1 . Reported MIC KP 48 h?
125

###

- Test system: Candida albicans ATCC 44859
- TEST NAME: Antifungal microdilution broth method, C. albicans
- Assay type: cell-based
- PROTOCOL CONDITIONS: ATCC44859, 24 h, read-out: MIC CA 24 h
MEASUREMENT TYPE: MIC

Below, each entry is followed by its recorded MIC result.
{"COMPOUND": "COc1ccccc1C=Nc1ccc(C(=O)O)cc1 [1s]", "MIC": "> 500 µM"}
{"COMPOUND": "O=C(O)c1ccc(N=Cc2ccc(O)cc2)cc1 [1t]", "MIC": "> 500 µM"}
{"COMPOUND": "O=C(O)c1ccc(N=Cc2ccccc2O)cc1 [1a]", "MIC": "> 500 µM"}
{"COMPOUND": "Cc1ccc(O)c(C=Nc2ccc(C(=O)O)cc2)c1 [1g]", "MIC": "> 125 µM"}
{"COMPOUND": "O=C(O)c1ccc(N=Cc2cc(F)ccc2O)cc1 [1b]", "MIC": "> 500 µM"}

Entry under review: Nc1ccc(C(=O)O)cc1 [PABA 1, 4-aminobenzoic acid] . Reported MIC?
> 500 µM

Now consider O=C(O)c1ccc(N=Cc2cc(Cl)ccc2O)cc1 [1c] and answer again.
> 125 µM

Now consider O=C(O)c1ccc(NCc2ccccc2O)cc1 [1u, 4-[(2-Hydroxybenzyl)amino]benzoic acid] and answer again.
> 500 µM

Now consider CC(C)(C)c1ccc(O)c(C=Nc2ccc(C(=O)O)cc2)c1 [1j] and answer again.
> 500 µM

Now consider O=C(O)c1ccc(N=Cc2cc(O)ccc2O)cc1 [1i] and answer again.
500 µM

Now consider O=C(O)c1ccc(N=Cc2cc(Cl)cc(Cl)c2O)cc1 [1n] and answer again.
125 µM

Now consider O=C(O)c1ccc(N=Cc2cccc(Cl)c2O)cc1 [1m] and answer again.
31.2 µM

Now consider O=C(O)c1ccc(N=Cc2cc(I)cc(I)c2O)cc1 [1q] and answer again.
7.81 µM

Now consider O=C(O)c1ccc(N=Cc2ccc(Cl)cc2O)cc1 [1l] and answer again.
250 µM

###

- System: Staphylococcus epidermidis H 6966/08
- TEST NAME: Antibacterial microdilution broth method, S. epidermidis
- Type: cell-based
- PROTOCOL CONDITIONS: Staphylococcus epidermidis, H6966/08; S. epidermidis; 48 h incubation; read-out: MIC SE 48 h
MEASUREMENT TYPE: MIC

{"COMPOUND": "COc1ccccc1C=Nc1ccc(C(=O)O)cc1 [1s]", "MIC": "> 500 µM"}

Form field - read-out: MIC; system: Staphylococcus epidermidis H 6966/08; submitted item: O=C(O)c1ccc(N=Cc2cc(F)ccc2O)cc1 [1b]
> 500 µM

Now consider O=C(O)c1ccc(N=Cc2ccc(Cl)cc2O)cc1 [1l] and answer again.
> 500 µM

###

compounds and their reported log10 MIC
- Test system: Mycobacterium tuberculosis H37Rv (331/88)
- TEST NAME: Antimycobacterial micromethod in Šula's medium, M. tuberculosis
- Type: cell-based
- PROTOCOL CONDITIONS: 336 h, 14 days incubation at 37 °C, read-out: MIC Mtb. 331/88 14 d
The base-10 logarithm of MIC, taken with MIC in µM, is what appears here.

Below, each entry is followed by its recorded log10 MIC result.
{"COMPOUND": "O=C(O)c1ccc(N=Cc2cc(O)ccc2O)cc1", "log10 MIC": 2.70}
{"COMPOUND": "O=C(O)c1ccc(N=Cc2cc(Cl)ccc2O)cc1", "log10 MIC": 2.40}
{"COMPOUND": "O=C(O)c1ccc(NCc2ccccc2O)cc1 [1u, 4-[(2-Hydroxybenzyl)amino]benzoic acid]", "log10 MIC": 3.00}
{"COMPOUND": "O=C(O)c1ccc(N=Cc2ccc([N+](=O)[O-])o2)cc1", "log10 MIC": 1.80}
{"COMPOUND": "O=C(O)c1ccc(N=Cc2ccc(Cl)cc2O)cc1", "log10 MIC": 2.40}
{"COMPOUND": "COc1ccc(O)c(C=Nc2ccc(C(=O)O)cc2)c1", "log10 MIC": 2.40}
{"COMPOUND": "Cc1ccc(O)c(C=Nc2ccc(C(=O)O)cc2)c1", "log10 MIC": 2.70}
{"COMPOUND": "O=C(O)c1ccc(N=Cc2cc(Cl)cc(Br)c2O)cc1", "log10 MIC": 2.40}
{"COMPOUND": "COc1ccccc1C=Nc1ccc(C(=O)O)cc1", "log10 MIC": 3.00}
{"COMPOUND": "O=C(O)c1ccc(N=Cc2ccc(O)cc2)cc1", "log10 MIC": 3.00}

Form field - read-out: log10 MIC; system: Mycobacterium tuberculosis H37Rv (331/88); submitted item: O=C(O)c1ccc(N=Cc2cccc(Cl)c2O)cc1
2.70

Now consider O=C(O)c1ccc(N=Cc2cc(I)cc(I)c2O)cc1 and answer again.
2.40

Now consider O=C(O)c1ccc(N=Cc2cc(Br)ccc2O)cc1 and answer again.
2.40

Now consider NNC(=O)c1ccncc1 [INH, isoniazid, reference compound] and answer again.
-0.30

Now consider O=C(O)c1ccc(N=Cc2cc(Cl)cc(I)c2O)cc1 and answer again.
2.40
